# system: KDM4A (Homo sapiens)
# Sequence (O75164 2-1064): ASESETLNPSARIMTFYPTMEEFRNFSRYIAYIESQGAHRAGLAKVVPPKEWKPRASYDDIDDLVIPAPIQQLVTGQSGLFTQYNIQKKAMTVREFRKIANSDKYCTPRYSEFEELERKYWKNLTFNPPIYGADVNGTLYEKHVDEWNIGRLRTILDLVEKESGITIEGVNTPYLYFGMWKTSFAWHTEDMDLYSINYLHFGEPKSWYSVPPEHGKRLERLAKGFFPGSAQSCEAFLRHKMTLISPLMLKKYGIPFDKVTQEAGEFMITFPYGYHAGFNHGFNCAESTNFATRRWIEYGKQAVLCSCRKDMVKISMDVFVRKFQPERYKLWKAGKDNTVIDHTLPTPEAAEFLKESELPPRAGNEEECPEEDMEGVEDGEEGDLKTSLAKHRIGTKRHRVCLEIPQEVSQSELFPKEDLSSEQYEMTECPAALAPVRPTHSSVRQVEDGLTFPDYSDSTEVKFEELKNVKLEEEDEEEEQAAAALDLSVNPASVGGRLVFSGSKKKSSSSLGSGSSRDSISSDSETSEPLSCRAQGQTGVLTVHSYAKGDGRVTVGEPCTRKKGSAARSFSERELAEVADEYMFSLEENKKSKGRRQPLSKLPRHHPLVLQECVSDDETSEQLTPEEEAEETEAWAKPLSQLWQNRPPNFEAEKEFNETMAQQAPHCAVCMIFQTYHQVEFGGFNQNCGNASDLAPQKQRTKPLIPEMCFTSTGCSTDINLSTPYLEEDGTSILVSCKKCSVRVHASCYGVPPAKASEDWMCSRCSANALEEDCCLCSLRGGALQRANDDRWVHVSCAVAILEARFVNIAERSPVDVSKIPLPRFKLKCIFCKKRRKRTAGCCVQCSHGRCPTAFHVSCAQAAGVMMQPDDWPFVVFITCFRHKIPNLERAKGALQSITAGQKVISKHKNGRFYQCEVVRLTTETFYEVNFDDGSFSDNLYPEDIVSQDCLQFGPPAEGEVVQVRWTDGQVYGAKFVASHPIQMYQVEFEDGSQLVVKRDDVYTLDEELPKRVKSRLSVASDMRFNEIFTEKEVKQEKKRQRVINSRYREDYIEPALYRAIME
# experimentNotes: FDH-coupled demethylase assay, recombinant KDM4A with H3K9me3 peptide (Cayman kit […])
readout: IC50

>>> print(df.to_string())
                                compound  readout  assayresult
0  CC(C)(C)OC(=O)NCc1cc2ccccc2[te]1 [1c]     IC50      30.2 µM
